- assay.notes: Inhibition of CCR5 by cell-cell fusion inhibition assay
assay.readout: pIC50
In textbook form, pIC50 equals minus log to base ten of the concentration in mol/L.

In the examples that follow, each entry is paired with its recorded pIC50.
molecule | pIC50
Cc1cc(=O)oc(C)c1C(=O)N1C[C@H]2CN(CCC(c3ccccc3)C3CCN(S(C)(=O)=O)CC3)C[C@H]2C1 (some centres not stated) | 8.10
COC(=O)N1CCC(C(CCN2C[C@@H]3CN(C(=O)c4c(C)ncnc4C)C[C@@H]3C2)c2ccccc2)CC1 (some centres not stated) | 6.13
Cc1ncnc(C)c1C(=O)N1C[C@H]2CN(CCC(c3ccccc3)C3CCN(CC(F)F)CC3)C[C@H]2C1 (some centres not stated) | 6.86
Cc1ncnc(C)c1C(=O)N1C[C@H]2CN(CCC(c3ccccc3)C3CCN(S(=O)(=O)C(C)C)CC3)C[C@H]2C1 (some centres not stated) | 7.00

Ask | Look up pIC50 for this molecule: Cc1ncnc(C)c1C(=O)N1C[C@H]2CN(CCC(c3ccccc3)C3CN(S(=O)(=O)C4CC4)C3)C[C@H]2C1 (some centres not stated)
Reply | 6.50

Ask | Continue with Cc1ncnc(C)c1C(=O)N1C[C@H]2CN(CCC(c3cccc(F)c3)C3CN(S(=O)(=O)C4CC4)C3)C[C@H]2C1 (some centres not stated)
Reply | 7.52
